Conditions: in methanol, 308.15 K
Measurement Label: solubility (mole fraction)
Format: numeric value only, no unit, no commentary.

Exam item: Which solubility (mole fraction) value is on record for "Cl.Cl.Fc1ccc(C(c2ccc(F)cc2)N2CCN(C/C=C/c3ccccc3)CC2)cc1" ?
Marked response: 0.0115

----------
Conditions: in methanol, 303.15 K
Measurement Label: solubility (mole fraction)
Format: numeric value only, no unit, no commentary.

Exam item: Which solubility (mole fraction) value is on record for "Cl.Cl.Fc1ccc(C(c2ccc(F)cc2)N2CCN(C/C=C/c3ccccc3)CC2)cc1" ?
Marked response: 0.00934

----------
Settings: in n-butanol, 318.15 K
Measurement Label: solubility (mole fraction)
Format: numeric value only, no unit, no commentary.

Exam item: Which solubility (mole fraction) value is on record for "Cl.Cl.Fc1ccc(C(c2ccc(F)cc2)N2CCN(C/C=C/c3ccccc3)CC2)cc1" ?
Marked response: 0.00575

----------
Details: in isobutanol, 293.15 K
Measurement Label: solubility (mole fraction)
Format: numeric value only, no unit, no commentary.

Exam item: Which solubility (mole fraction) value is on record for "Cl.Cl.Fc1ccc(C(c2ccc(F)cc2)N2CCN(C/C=C/c3ccccc3)CC2)cc1" ?
Marked response: 0.00186

----------
Conditions: in n-butanol, 303.15 K
Measurement Label: solubility (mole fraction)
Format: numeric value only, no unit, no commentary.

Exam item: Which solubility (mole fraction) value is on record for "Cl.Cl.Fc1ccc(C(c2ccc(F)cc2)N2CCN(C/C=C/c3ccccc3)CC2)cc1" ?
Marked response: 0.00296

----------
Details: in acetonitrile, 303.15 K
Measurement Label: solubility (mole fraction)
Format: numeric value only, no unit, no commentary.

Exam item: Which solubility (mole fraction) value is on record for "Cl.Cl.Fc1ccc(C(c2ccc(F)cc2)N2CCN(C/C=C/c3ccccc3)CC2)cc1" ?
Marked response: 0.00343

----------
Settings: in ethyl acetate, 318.15 K
Measurement Label: solubility (mole fraction)
Format: numeric value only, no unit, no commentary.

Exam item: Which solubility (mole fraction) value is on record for "Cl.Cl.Fc1ccc(C(c2ccc(F)cc2)N2CCN(C/C=C/c3ccccc3)CC2)cc1" ?
Marked response: 0.00434

----------
Settings: in n-propanol, 308.15 K
Measurement Label: solubility (mole fraction)
Format: numeric value only, no unit, no commentary.

Exam item: Which solubility (mole fraction) value is on record for "Cl.Cl.Fc1ccc(C(c2ccc(F)cc2)N2CCN(C/C=C/c3ccccc3)CC2)cc1" ?
Marked response: 0.00877

----------
Settings: in methanol, 333.15 K
Measurement Label: solubility (mole fraction)
Format: numeric value only, no unit, no commentary.

Exam item: Which solubility (mole fraction) value is on record for "Cl.Cl.Fc1ccc(C(c2ccc(F)cc2)N2CCN(C/C=C/c3ccccc3)CC2)cc1" ?
Marked response: 0.0298

----------
Conditions: in n-butanol, 323.15 K
Measurement Label: solubility (mole fraction)
Format: numeric value only, no unit, no commentary.

Exam item: Which solubility (mole fraction) value is on record for "Cl.Cl.Fc1ccc(C(c2ccc(F)cc2)N2CCN(C/C=C/c3ccccc3)CC2)cc1" ?
Marked response: 0.00712

----------
Settings: in isopropanol, 308.15 K
Measurement Label: solubility (mole fraction)
Format: numeric value only, no unit, no commentary.

Exam item: Which solubility (mole fraction) value is on record for "Cl.Cl.Fc1ccc(C(c2ccc(F)cc2)N2CCN(C/C=C/c3ccccc3)CC2)cc1" ?
Marked response: 0.00501

----------
Conditions: in ethanol, 318.15 K
Measurement Label: solubility (mole fraction)
Format: numeric value only, no unit, no commentary.

Exam item: Which solubility (mole fraction) value is on record for "Cl.Cl.Fc1ccc(C(c2ccc(F)cc2)N2CCN(C/C=C/c3ccccc3)CC2)cc1" ?
Marked response: 0.0145

----------
Settings: in n-propanol, 303.15 K
Measurement Label: solubility (mole fraction)
Format: numeric value only, no unit, no commentary.

Exam item: Which solubility (mole fraction) value is on record for "Cl.Cl.Fc1ccc(C(c2ccc(F)cc2)N2CCN(C/C=C/c3ccccc3)CC2)cc1" ?
Marked response: 0.00714

----------
Conditions: in methyl acetate, 298.15 K
Measurement Label: solubility (mole fraction)

Exam item: Which solubility (mole fraction) value is on record for "Cl.Cl.Fc1ccc(C(c2ccc(F)cc2)N2CCN(C/C=C/c3ccccc3)CC2)cc1" ?
Marked response: 0.00168

----------
Conditions: in ethyl acetate, 323.15 K
Measurement Label: solubility (mole fraction)
Format: numeric value only, no unit, no commentary.

Exam item: Which solubility (mole fraction) value is on record for "Cl.Cl.Fc1ccc(C(c2ccc(F)cc2)N2CCN(C/C=C/c3ccccc3)CC2)cc1" ?
Marked response: 0.0053

----------
Conditions: in n-propanol, 328.15 K
Measurement Label: solubility (mole fraction)
Format: numeric value only, no unit, no commentary.

Exam item: Which solubility (mole fraction) value is on record for "Cl.Cl.Fc1ccc(C(c2ccc(F)cc2)N2CCN(C/C=C/c3ccccc3)CC2)cc1" ?
Marked response: 0.0189

----------
Conditions: in n-propanol, 298.15 K
Measurement Label: solubility (mole fraction)
Format: numeric value only, no unit, no commentary.

Exam item: Which solubility (mole fraction) value is on record for "Cl.Cl.Fc1ccc(C(c2ccc(F)cc2)N2CCN(C/C=C/c3ccccc3)CC2)cc1" ?
Marked response: 0.00587

----------
Details: in ethanol, 293.15 K
Measurement Label: solubility (mole fraction)
Format: numeric value only, no unit, no commentary.

Exam item: Which solubility (mole fraction) value is on record for "Cl.Cl.Fc1ccc(C(c2ccc(F)cc2)N2CCN(C/C=C/c3ccccc3)CC2)cc1" ?
Marked response: 0.00522

----------
Details: in ethyl acetate, 328.15 K
Measurement Label: solubility (mole fraction)

Exam item: Which solubility (mole fraction) value is on record for "Cl.Cl.Fc1ccc(C(c2ccc(F)cc2)N2CCN(C/C=C/c3ccccc3)CC2)cc1" ?
Marked response: 0.00644

----------
Details: in acetonitrile, 323.15 K
Measurement Label: solubility (mole fraction)
Format: numeric value only, no unit, no commentary.

Exam item: Which solubility (mole fraction) value is on record for "Cl.Cl.Fc1ccc(C(c2ccc(F)cc2)N2CCN(C/C=C/c3ccccc3)CC2)cc1" ?
Marked response: 0.008

----------
Settings: in methyl acetate, 303.15 K
Measurement Label: solubility (mole fraction)

Exam item: Which solubility (mole fraction) value is on record for "Cl.Cl.Fc1ccc(C(c2ccc(F)cc2)N2CCN(C/C=C/c3ccccc3)CC2)cc1" ?
Marked response: 0.00211
